# METHOD: Antitumor activity against mouse EAC after 2 hrs by trypan blue exclusion assay
# Type: functional, cell-based
# ASSAY_SETUP: Ehrlich
Readings of IC50 for the listed molecules

- O=C1/C(=C/c2ccccc2)N=C(c2ccccc2)N1n1cnc2c(cnn2-c2ccccc2)c1=O: > 100 µg/mL
- Nn1c(=O)[nH]c2c(cnn2-c2ccccc2)c1=O: 100 µg/mL

Entry Nn1cnc2c(cnn2-c2ccccc2)c1=S : reported IC50 = ?
> 100 µg/mL

Item: O=c1c2cnn(-c3ccccc3)c2nc2ocnn12
> 100 µg/mL

Next molecule: COc1cccc2c1C(=O)c1c(O)c3c(c(O)c1C2=O)C[C@@](O)(C(=O)CO)C[C@@H]3O[C@H]1C[C@H](N)[C@H](O)[C@H](C)O1
52 µg/mL

Please do the same for O=c1c2cnn(-c3ccccc3)c2nc2[nH]c3ccccc3n12 as well.
> 100 µg/mL

Moving on to CSC(=NS(=O)(=O)c1ccc(Nc2nn3c(=O)c4cnn(-c5ccccc5)c4nc3o2)cc1)SC
> 100 µg/mL

Note, next up: O=c1oc2nc3c(cnn3-c3ccccc3)c(=O)n2c2ccccc12
> 100 µg/mL

For O=c1c2cnn(-c3ccccc3)c2ncn1Cc1ccccc1 then?
90 µg/mL

Try this molecule too: S=c1nc2c3cnn(-c4ccccc4)c3ncn2[nH]1
> 100 µg/mL

====

As shown below, each of these molecules has a reported Activity value.
# METHOD: Antitumor activity against mouse EAC assessed as non viable cells at 25 ug/ml after 2 hrs by trypan blue exclusion assay
# Assay type: functional, Ehrlich

• Nn1c(=O)[nH]c2c(cnn2-c2ccccc2)c1=O = 10%

// lookup Activity for S=c1nc2c3cnn(-c4ccccc4)c3ncn2[nH]1
10%

Next up: COc1cccc2c1C(=O)c1c(O)c3c(c(O)c1C2=O)C[C@@](O)(C(=O)CO)C[C@@H]3O[C@H]1C[C@H](N)[C@H](O)[C@H](C)O1
20%

Let us now turn to Nn1cnc2c(cnn2-c2ccccc2)c1=S
10%
